Reference source: patent US4783530A

Would you mind telling me the reported Ki of each entry?
molecular target: A1 receptor (Rattus norvegicus, UniProt P25099)
Counter-ions that a name gives are not always drawn.
Numbers only, in nM.

>>> value_measured("Cl.Cn1c(=O)c2[nH]c(-c3ccc(C(=N)N)cc3)nc2n(C)c1=O.O [Me Me H C(NH)NH2, hydrochloride hydrate]")
244
>>> value_measured("CCCn1c(=O)c2[nH]c(-c3ccc(C(=O)OCC)cc3)nc2n(CCC)c1=O")
26.9
>>> value_measured("CCCn1c(=O)c2[nH]c(-c3ccc(CN)cc3)nc2n(CCC)c1=O.Cl.O [Pr Pr H CH2 NH2, hydrochloride hydrate]")
16.3

// below: Ki requested for another compound
Exercise: # lookup: Ki of CCCn1c(=O)c2[nH]c(-c3ccc(C(=N)NC)cc3)nc2n(CCC)c1=O [Pr Pr H C(NH)NHMe, hydrochloride hydrate]
Key: 12

###

test system: NECA-induced depression of force and rate of an isolated guinea pig heart; assay: NECA Depressed Langendorff Heart; details: guinea pig; 50 percent inhibition of the NECA-induced depression of force; read-out: NECA - Depressed Langendorff Heart TC50 Force
Where a name gives a salt, the structure may show the parent alone.
Sorting guide: entries reporting IC50 beneath 1000 nM go in the rule met pile, the rest go in the rule not met pile.

Examples from the recorded data:
>>> label("CCCn1c(=O)c2[nH]c(-c3ccc(O)c(CN(C)C)c3)nc2n(CCC)c1=O [Pr Pr CH2 NMe2 OH, hydrochloride hydrate]")
"rule not met"
>>> label("CCCn1c(=O)c2[nH]c(-c3cccc(OCC(O)CO)c3)nc2n(CCC)c1=O (stereo not shown)")
"rule met"
>>> label("CCCn1c(=O)c2[nH]c(-c3ccc(C(=N)N)cc3)nc2n(CCC)c1=O")
"rule not met"
>>> label("CCCn1c(=O)c2[nH]c(-c3ccc(C(=N)NC)cc3)nc2n(CCC)c1=O [Pr Pr H C(NH)NHMe, hydrochloride hydrate]")
"rule not met"
>>> label("CNC(=N)c1ccc(-c2nc3c([nH]2)c(=O)n(C)c(=O)n3C)cc1 [Me Me H C(NH)NHMe, hydrochloride hydrate]")
"rule not met"
>>> label("CCCn1c(=O)c2[nH]c(-c3ccc(CN)cc3)nc2n(CCC)c1=O.Cl.O [Pr Pr H CH2 NH2, hydrochloride hydrate]")
"rule met"

Attention now turns to another entry.
Exercise: IC50 strictly < 1000 nM for this compound? CCCn1c(=O)c2[nH]c(-c3ccc(Cl)cc3N)nc2n(CCC)c1=O [PACPX, reference compound]
Key: rule not met

###

system: NECA-induced depression of force and rate of an isolated guinea pig heart; experiment: NECA Depressed Langendorff Heart; conditions: guinea pig; 50 percent inhibition of the NECA-induced depression of force; read-out: NECA - Depressed Langendorff Heart TC50 Force
Provide the reported IC50 of each item.

>>> value_measured("CCCn1c(=O)c2[nH]c(-c3ccc(NC(=O)N(C)C)cc3)nc2n(CCC)c1=O")
"360 nM"
>>> value_measured("CCCn1c(=O)c2[nH]c(-c3ccc(C(=O)OCC)cc3)nc2n(CCC)c1=O")
"4780 nM"

Let us move to another entry and its IC50.
Exercise: Name the reported IC50 value associated with the compound Cl.Cn1c(=O)c2[nH]c(-c3ccc(C(=N)N)cc3)nc2n(C)c1=O.O [Me Me H C(NH)NH2, hydrochloride hydrate]
Key: 2010 nM

###

target: A2 receptor (Rattus norvegicus)
Sequence (P30543 whole entry): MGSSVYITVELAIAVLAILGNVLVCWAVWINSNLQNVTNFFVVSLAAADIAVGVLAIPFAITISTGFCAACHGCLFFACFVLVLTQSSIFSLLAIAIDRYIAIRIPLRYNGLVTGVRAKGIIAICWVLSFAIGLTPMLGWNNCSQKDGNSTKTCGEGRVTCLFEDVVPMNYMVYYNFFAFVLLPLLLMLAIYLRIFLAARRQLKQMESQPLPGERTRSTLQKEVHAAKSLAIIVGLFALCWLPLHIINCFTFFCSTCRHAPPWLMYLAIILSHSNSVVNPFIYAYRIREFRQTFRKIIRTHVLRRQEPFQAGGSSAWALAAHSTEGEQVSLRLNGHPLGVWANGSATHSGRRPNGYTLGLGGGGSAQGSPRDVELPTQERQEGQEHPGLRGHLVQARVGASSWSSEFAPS
Where a name gives a salt, the structure may show the parent alone.
So basically, if Ki comes in under 400 nM it's Fulfilled, and if it's 400 nM or more it's Not fulfilled.

Example entries and their recorded answers appear below.
>>> label("CCCn1c(=O)c2[nH]c(-c3ccc(C(=N)NC)cc3)nc2n(CCC)c1=O [Pr Pr H C(NH)NHMe, hydrochloride hydrate]")
"Fulfilled"
>>> label("CCCn1c(=O)c2[nH]c(-c3ccc(CN)cc3)nc2n(CCC)c1=O.Cl.O [Pr Pr H CH2 NH2, hydrochloride hydrate]")
"Not fulfilled"
>>> label("Cl.Cn1c(=O)c2[nH]c(-c3ccc(C(=N)N)cc3)nc2n(C)c1=O.O [Me Me H C(NH)NH2, hydrochloride hydrate]")
"Not fulfilled"
>>> label("CCCn1c(=O)c2[nH]c(-c3ccc(O)c(CN(C)C)c3)nc2n(CCC)c1=O [Pr Pr CH2 NMe2 OH, hydrochloride hydrate]")
"Not fulfilled"

Exercise: Report whether reported Ki is lower than 400 nM (strictly) for CCCn1c(=O)c2[nH]c(-c3ccc(Cl)cc3N)nc2n(CCC)c1=O [PACPX, reference compound]
Key: Not fulfilled

###

Sequence of the target: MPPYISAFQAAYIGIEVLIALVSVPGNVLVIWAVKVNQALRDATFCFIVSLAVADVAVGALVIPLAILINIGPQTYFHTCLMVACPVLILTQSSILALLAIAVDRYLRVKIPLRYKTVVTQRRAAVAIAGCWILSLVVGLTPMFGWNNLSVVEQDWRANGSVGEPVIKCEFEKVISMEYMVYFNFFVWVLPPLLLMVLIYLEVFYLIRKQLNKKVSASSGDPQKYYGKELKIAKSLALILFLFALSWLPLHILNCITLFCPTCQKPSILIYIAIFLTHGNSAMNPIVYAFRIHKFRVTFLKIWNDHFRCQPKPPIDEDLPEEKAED
Counter-ions that a name gives are not always drawn.
ATTRIBUTE MEASURED: Ki (nM)
One number for each entry, in nM.

>>> value_measured("CCCn1c(=O)c2[nH]c(-c3ccc(Cl)cc3N)nc2n(CCC)c1=O [PACPX, reference compound]")
12.6

For every listed record, write down its Ki.
1. CCCn1c(=O)c2[nH]c(-c3ccc(O)c(CN(C)C)c3)nc2n(CCC)c1=O [Pr Pr CH2 NMe2 OH, hydrochloride hydrate]
2. CCCn1c(=O)c2[nH]c(-c3ccc(C(=N)N)cc3)nc2n(CCC)c1=O

Key:
[88.7, 9.7]

###

Target chain: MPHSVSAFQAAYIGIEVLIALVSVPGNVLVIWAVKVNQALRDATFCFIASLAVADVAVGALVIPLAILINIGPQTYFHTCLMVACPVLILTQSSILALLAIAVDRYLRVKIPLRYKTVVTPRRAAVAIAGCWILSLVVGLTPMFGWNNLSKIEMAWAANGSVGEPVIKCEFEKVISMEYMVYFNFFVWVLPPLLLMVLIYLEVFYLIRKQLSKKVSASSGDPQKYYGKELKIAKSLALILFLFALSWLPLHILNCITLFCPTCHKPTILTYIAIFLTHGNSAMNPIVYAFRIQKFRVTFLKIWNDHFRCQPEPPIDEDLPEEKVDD
Where a name gives a salt, the structure may show the parent alone.
Give measured pKi for each item. Keep answers brief.
Give bare numbers, as −log10 of the molar value.

See these solved cases before continuing.
>>> value_measured("CNC(=N)c1ccc(-c2nc3c([nH]2)c(=O)n(C)c(=O)n3C)cc1 [Me Me H C(NH)NHMe, hydrochloride hydrate]")
5.73
>>> value_measured("CCCn1c(=O)c2[nH]c(-c3ccc(Cl)cc3N)nc2n(CCC)c1=O [PACPX, reference compound]")
7.35
>>> value_measured("CCCn1c(=O)c2[nH]c(-c3ccc(C(=O)OCC)cc3)nc2n(CCC)c1=O")
6.37
>>> value_measured("Cl.Cn1c(=O)c2[nH]c(-c3ccc(C(=N)N)cc3)nc2n(C)c1=O.O [Me Me H C(NH)NH2, hydrochloride hydrate]")
5.94
>>> value_measured("CCCn1c(=O)c2[nH]c(-c3ccc(NC(=O)N(C)C)cc3)nc2n(CCC)c1=O")
7.07

Here are 4 compounds. What values of pKi were reported for them?
1. CCCn1c(=O)c2[nH]c(-c3ccc(C(=N)NC)cc3)nc2n(CCC)c1=O [Pr Pr H C(NH)NHMe, hydrochloride hydrate]
2. CCCn1c(=O)c2[nH]c(-c3ccc(O)c(CN(C)C)c3)nc2n(CCC)c1=O [Pr Pr CH2 NMe2 OH, hydrochloride hydrate]
3. CCCn1c(=O)c2[nH]c(-c3ccc(CN)cc3)nc2n(CCC)c1=O.Cl.O [Pr Pr H CH2 NH2, hydrochloride hydrate]
4. CCCn1c(=O)c2[nH]c(-c3ccc(C(=N)N)cc3)nc2n(CCC)c1=O

Key:
6.89
6.77
7.18
7.09

###

system: NECA-induced depression of force and rate of an isolated guinea pig heart; experiment: NECA Depressed Langendorff Heart; details: guinea pig; 50 percent inhibition of the NECA-induced depression of rate; read-out: NECA - Depressed Langendorff Heart TC50 Rate
Structures can show the parent of a compound that is named as a salt.
ATTRIBUTE MEASURED: pIC50
Give bare numbers, as −log10 of the molar value.

// below: answered molecules
>>> value_measured("CCCn1c(=O)c2[nH]c(-c3ccc(NC(=O)N(C)C)cc3)nc2n(CCC)c1=O [Pr Pr H NHC(=O)NMe2]")
6.01
>>> value_measured("CCCn1c(=O)c2[nH]c(-c3ccc(C(=N)NC)cc3)nc2n(CCC)c1=O [Pr Pr H C(NH)NHMe, hydrochloride hydrate]")
5.42
>>> value_measured("CCCn1c(=O)c2[nH]c(-c3cccc(OCC(O)CO)c3)nc2n(CCC)c1=O (stereo not shown) [Pr Pr OCH2 (CH2 OH)2 H]")
5.98

Could I get pIC50 for every one of these entries?
1. CCCn1c(=O)c2[nH]c(-c3ccc(O)c(CN(C)C)c3)nc2n(CCC)c1=O [Pr Pr CH2 NMe2 OH, hydrochloride hydrate]
2. CCCn1c(=O)c2[nH]c(-c3ccc(C(=O)OCC)cc3)nc2n(CCC)c1=O [Pr Pr H COOEt]
3. Cl.Cn1c(=O)c2[nH]c(-c3ccc(C(=N)N)cc3)nc2n(C)c1=O.O [Me Me H C(NH)NH2, hydrochloride hydrate]
4. CCCn1c(=O)c2[nH]c(-c3ccc(CN)cc3)nc2n(CCC)c1=O.Cl.O [Pr Pr H CH2 NH2, hydrochloride hydrate]
5. CCCn1c(=O)c2[nH]c(-c3ccc(Cl)cc3N)nc2n(CCC)c1=O [PACPX, reference compound]

Key:
1: 5.69; 2: 5.11; 3: 4.81; 4: 5.70; 5: 6.74

Look at each molecule and report its pIC50.
1. CCCn1c(=O)c2[nH]c(-c3ccc(C(=N)N)cc3)nc2n(CCC)c1=O [Pr Pr H C(NH)NH2]
2. CNC(=N)c1ccc(-c2nc3c([nH]2)c(=O)n(C)c(=O)n3C)cc1 [Me Me H C(NH)NHMe, hydrochloride hydrate]

Key:
[5.15, 4.74]
